{"compound": "Nc1cccc2ccncc12", "melting point": "169 to 171 °C"}
{"compound": "N#Cc1cc(C(N)=O)c[nH]1", "melting point": "245 to 247 °C"}
{"compound": "O=C(O)c1nc(=O)[nH][nH]1", "melting point": "202 to 204 °C"}
{"compound": "NC(=O)COCc1ccccc1", "melting point": "92 to 94 °C"}
{"compound": "CC(N)c1ccc(OCC(N)=O)cc1 (centres undefined)", "melting point": "127 to 129 °C"}
{"compound": "O=C1C=CC(=O)N1c1ccc(F)cc1", "melting point": "160 to 162 °C"}
{"compound": "Sc1n[nH]c(-c2ccccn2)n1", "melting point": "279 to 281 °C"}
{"compound": "COc1cccc(NC(=O)c2ccccc2N(C)C(=O)CCC(=O)O)c1", "melting point": "125 to 127 °C"}
{"compound": "O=C1CCS(=O)(=O)c2cc(F)c(F)cc21", "melting point": "149 to 151 °C"}
{"compound": "Cc1nnc(-c2cccc(C#N)c2)[nH]1", "melting point": "173 to 175 °C"}
{"compound": "O=C(c1ccccc1)c1ccccc1Br", "melting point": "72 to 74 °C"}
{"compound": "CC(=O)c1nc2ccccc2n1C(F)F", "melting point": "65 to 67 °C"}
{"compound": "Nc1cccc(-c2nc(C3CC3)no2)c1", "melting point": "89 to 91 °C"}
{"compound": "CC(=NO)c1ccc(S(=O)(=O)N(C)C)cc1", "melting point": "108 to 110 °C"}
{"compound": "Cc1c(Br)cc(C(=O)O)cc1S(=O)(=O)Cl", "melting point": "183 to 185 °C"}
{"compound": "Cc1ccc(-n2nnnc2S)c(C)c1", "melting point": "110 to 112 °C"}
{"compound": "CC1=NN(c2ccc(C(=O)O)cc2)CC1", "melting point": "261 to 263 °C"}
{"compound": "NC(=S)COc1ccc(F)cc1", "melting point": "120 to 122 °C"}
{"compound": "Cc1cc(C(=O)O)cc(S(C)(=O)=O)c1F", "melting point": "229 to 231 °C"}
{"compound": "COC(=O)c1c(NC(=O)OC(C)(C)C)c[nH]c1C", "melting point": "109 to 111 °C"}
{"compound": "Oc1cccc(-n2cnnn2)c1", "melting point": "174 to 176 °C"}
{"compound": "O=C(NCc1ccc(Cl)cc1)n1ccnc1", "melting point": "94 to 96 °C"}
{"compound": "O=C(O)C1CCCCN1C(=O)C1CCCC1 (centres undefined)", "melting point": "121 to 123 °C"}
{"compound": "CC(C)(C)NS(=O)(=O)c1ccc(F)c(N)c1", "melting point": "99 to 101 °C"}
{"compound": "FC(F)(F)CNc1ccccn1", "melting point": "70 to 72 °C"}
{"compound": "N#CC(N)c1ccc(Cl)cc1Cl (centres undefined)", "melting point": "80 to 82 °C"}
{"compound": "CC(C)(C)OC(=O)N1CCCC(CC#N)C1 (centres undefined)", "melting point": "48 to 50 °C"}
{"compound": "Cc1ccccc1C(=O)NCCC(=O)O", "melting point": "110 to 112 °C"}
{"compound": "COc1ccc2nc(C#N)ccc2c1", "melting point": "176 to 178 °C"}
